Attribute: IC50
molecular target: Voltage-gated inwardly rectifying potassium channel KCNH2 (Homo sapiens); experiment: Inhibition of human ERG stably expressed in CHO cells by whole cell patch clamp method
Sequence (Q12809 whole entry): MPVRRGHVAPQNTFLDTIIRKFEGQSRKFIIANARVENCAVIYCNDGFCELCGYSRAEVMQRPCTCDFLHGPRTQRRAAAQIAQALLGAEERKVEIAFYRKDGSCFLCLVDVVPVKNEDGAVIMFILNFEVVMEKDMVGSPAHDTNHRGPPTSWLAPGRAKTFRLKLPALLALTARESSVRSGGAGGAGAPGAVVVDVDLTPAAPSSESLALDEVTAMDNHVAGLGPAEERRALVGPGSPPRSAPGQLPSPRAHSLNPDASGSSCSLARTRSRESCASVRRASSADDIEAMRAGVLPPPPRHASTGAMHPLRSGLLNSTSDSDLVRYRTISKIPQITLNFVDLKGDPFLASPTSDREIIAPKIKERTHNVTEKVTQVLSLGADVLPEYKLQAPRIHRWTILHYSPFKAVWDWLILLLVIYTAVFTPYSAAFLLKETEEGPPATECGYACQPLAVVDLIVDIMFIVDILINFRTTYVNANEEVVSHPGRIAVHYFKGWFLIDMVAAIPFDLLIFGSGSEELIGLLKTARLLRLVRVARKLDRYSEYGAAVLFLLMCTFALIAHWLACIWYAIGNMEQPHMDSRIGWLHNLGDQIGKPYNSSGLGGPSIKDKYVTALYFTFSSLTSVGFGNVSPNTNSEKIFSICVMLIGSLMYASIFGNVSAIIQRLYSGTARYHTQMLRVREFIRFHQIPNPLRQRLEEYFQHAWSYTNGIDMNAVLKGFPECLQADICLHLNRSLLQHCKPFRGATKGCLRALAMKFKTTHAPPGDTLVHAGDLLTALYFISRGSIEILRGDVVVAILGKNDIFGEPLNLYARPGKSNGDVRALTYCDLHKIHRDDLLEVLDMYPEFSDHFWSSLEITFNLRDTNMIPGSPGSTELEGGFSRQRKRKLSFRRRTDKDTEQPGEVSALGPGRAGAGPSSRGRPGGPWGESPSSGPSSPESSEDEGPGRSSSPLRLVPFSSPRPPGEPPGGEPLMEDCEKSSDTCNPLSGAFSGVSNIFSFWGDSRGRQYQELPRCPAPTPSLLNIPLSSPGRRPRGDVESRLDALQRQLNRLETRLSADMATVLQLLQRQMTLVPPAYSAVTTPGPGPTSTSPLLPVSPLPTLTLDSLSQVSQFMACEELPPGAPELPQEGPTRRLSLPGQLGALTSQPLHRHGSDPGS
MEASURE: IC50

compound_structure_string=COc1ccc(-c2cc(OCCN(C)c3ncc(C(=O)NO)cn3)c3ncnc(C)c3c2)cn1 measure=IC50 assay_value="> 30 µM"
compound_structure_string=COc1ncc(-c2cc(OCCCCCCC(=O)NO)c3ncnc(C)c3c2)cc1F measure=IC50 assay_value="> 30 µM"

----------
experiment: Drug level in BALB/c mouse plasma xenografted with human HGC27 cells at 200 mg/kg, po measured 0.5 hrs post last dose; format: ADME, organism-based
MEASURE: concentration at 0.5 h (ng/mL)

compound_structure_string=COc1ncc(-c2cc(OCCCCCCC(=O)NO)c3ncnc(C)c3c2)cc1F measure_unit=ng/mL assay_value=232

----------
system: MDA-MB-453; assay: Antiproliferative activity against human MDA-MB-453 cells after 96 hrs by MTT assay; type: functional, cell-based; details: MDA-MB-453, 96 h
pIC50: −log10 of the molar value.
MEASURE: pIC50

compound=COc1ccc(-c2cc(OCCN(C)c3ncc(C(=O)NO)cn3)c3ncnc(C)c3c2)cn1 measure=pIC50 assay_value=8.40
compound="COc1ccc(-c2nc(N3CCOCC3)c3sc(CN(C)c4ncc(C(=O)NO)cn4)cc3n2)cn1 [FIMEPINOSTAT]" measure=pIC50 assay_value=8.05
compound=COc1ncc(-c2cc(OCCCCCCC(=O)NO)c3ncnc(C)c3c2)cc1F measure=pIC50 assay_value=6.52
compound=Nc1cc(C(F)(F)F)c(-c2cc(N3CCOCC3)nc(N3CCOCC3)n2)cn1 measure=pIC50 assay_value=6.43

----------
target: Phosphatidylinositol 4,5-bisphosphate 3-kinase catalytic subunit gamma isoform (Homo sapiens, UniProt P48736); test: Inhibition of recombinant human His-tagged PIK3CG expressed in baculovirus expression system using PIP2 as substrate incubated for 1 hr by ADP-glo assay
Sequence (P48736 whole entry, canonical isoform): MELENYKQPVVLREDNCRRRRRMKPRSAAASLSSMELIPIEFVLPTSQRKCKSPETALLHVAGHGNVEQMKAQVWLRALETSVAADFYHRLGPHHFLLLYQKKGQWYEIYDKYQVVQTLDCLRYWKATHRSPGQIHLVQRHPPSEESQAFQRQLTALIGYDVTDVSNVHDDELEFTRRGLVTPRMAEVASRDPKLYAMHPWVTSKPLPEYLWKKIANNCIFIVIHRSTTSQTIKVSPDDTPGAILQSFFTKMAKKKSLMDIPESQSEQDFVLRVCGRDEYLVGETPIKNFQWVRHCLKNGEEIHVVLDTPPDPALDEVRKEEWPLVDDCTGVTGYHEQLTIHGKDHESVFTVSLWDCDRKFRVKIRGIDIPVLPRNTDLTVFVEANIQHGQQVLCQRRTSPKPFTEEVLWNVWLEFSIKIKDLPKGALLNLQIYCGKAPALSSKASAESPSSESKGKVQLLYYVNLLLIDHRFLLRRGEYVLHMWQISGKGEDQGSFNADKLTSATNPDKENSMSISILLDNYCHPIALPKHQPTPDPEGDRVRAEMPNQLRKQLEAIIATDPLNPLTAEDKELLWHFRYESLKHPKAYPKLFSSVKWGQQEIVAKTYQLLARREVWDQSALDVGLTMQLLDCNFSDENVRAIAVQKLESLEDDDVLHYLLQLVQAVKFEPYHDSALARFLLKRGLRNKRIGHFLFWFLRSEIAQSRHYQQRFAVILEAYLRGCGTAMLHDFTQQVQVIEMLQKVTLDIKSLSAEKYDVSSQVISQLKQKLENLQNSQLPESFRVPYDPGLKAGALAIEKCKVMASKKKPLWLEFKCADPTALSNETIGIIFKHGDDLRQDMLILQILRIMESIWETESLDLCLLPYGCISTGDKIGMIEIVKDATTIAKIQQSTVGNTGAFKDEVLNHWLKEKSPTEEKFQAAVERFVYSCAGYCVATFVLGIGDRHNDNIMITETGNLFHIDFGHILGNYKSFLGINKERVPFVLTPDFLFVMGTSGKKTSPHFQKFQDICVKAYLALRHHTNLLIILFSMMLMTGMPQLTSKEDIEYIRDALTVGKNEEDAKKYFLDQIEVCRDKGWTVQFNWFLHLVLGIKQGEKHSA
pIC50: −log10 of the molar value.
Attribute: pIC50
MEASURE: pIC50

compound_structure_string=COc1ncc(-c2cc(OCCCCCCC(=O)NO)c3ncnc(C)c3c2)cc1F assay_value=7.17
compound_structure_string=COc1ccc(-c2cc(OCCN(C)c3ncc(C(=O)NO)cn3)c3ncnc(C)c3c2)cn1 assay_value=6.33

----------
test: Toxicity in po dosed ICR mouse assessed as maximum tolerated dose; format: organism-based; settings: in vivo
Attribute: MTD
MEASURE: MTD

compound_structure_string=COc1ncc(-c2cc(OCCCCCCC(=O)NO)c3ncnc(C)c3c2)cc1F assay_value="> 2000 mg/kg"
compound_structure_string=COc1ccc(-c2cc(OCCN(C)c3ncc(C(=O)NO)cn3)c3ncnc(C)c3c2)cn1 assay_value="> 2000 mg/kg"

----------
Attribute: pIC50
target: Histone deacetylase 4 (Homo sapiens, UniProt P56524); assay: Inhibition of recombinant human full length HDAC4 expressed in baculovirus infected Sf9 insect cells using Ac-peptide as substrate preincubated for 15 mins followed by substrate addition and measured after 1 hr
Sequence (P56524 whole entry): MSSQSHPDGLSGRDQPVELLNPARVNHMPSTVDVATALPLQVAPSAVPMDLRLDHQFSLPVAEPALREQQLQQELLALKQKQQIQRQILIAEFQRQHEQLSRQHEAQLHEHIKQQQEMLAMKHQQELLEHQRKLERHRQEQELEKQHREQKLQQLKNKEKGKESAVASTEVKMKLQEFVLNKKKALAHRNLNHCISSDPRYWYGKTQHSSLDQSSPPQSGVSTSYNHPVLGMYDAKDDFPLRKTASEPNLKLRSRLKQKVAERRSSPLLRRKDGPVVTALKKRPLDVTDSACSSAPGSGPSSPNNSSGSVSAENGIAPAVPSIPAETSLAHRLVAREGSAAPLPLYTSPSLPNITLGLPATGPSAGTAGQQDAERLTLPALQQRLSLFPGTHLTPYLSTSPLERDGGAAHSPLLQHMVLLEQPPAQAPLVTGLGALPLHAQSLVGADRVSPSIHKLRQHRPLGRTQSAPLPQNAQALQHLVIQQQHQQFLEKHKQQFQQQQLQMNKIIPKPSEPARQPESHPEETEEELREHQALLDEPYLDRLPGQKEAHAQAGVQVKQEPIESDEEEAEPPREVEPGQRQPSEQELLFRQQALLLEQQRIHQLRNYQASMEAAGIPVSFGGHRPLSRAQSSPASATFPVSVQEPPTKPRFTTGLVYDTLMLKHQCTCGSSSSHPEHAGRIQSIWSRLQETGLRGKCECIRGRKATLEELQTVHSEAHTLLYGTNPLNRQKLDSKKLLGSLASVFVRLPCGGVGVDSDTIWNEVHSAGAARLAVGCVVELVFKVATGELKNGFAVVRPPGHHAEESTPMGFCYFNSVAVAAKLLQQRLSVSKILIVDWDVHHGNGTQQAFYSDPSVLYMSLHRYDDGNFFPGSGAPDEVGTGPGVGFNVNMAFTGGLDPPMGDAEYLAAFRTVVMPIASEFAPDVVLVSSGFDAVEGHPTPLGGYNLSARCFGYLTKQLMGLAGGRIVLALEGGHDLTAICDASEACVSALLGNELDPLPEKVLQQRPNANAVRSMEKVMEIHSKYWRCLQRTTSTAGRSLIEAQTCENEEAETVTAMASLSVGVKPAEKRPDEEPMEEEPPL
pIC50: −log10 of the molar value.
MEASURE: pIC50

compound_structure_string=COc1ncc(-c2cc(OCCCCCCC(=O)NO)c3ncnc(C)c3c2)cc1F reading_qualifier=< assay_value=6.00
compound_structure_string=COc1ccc(-c2cc(OCCN(C)c3ncc(C(=O)NO)cn3)c3ncnc(C)c3c2)cn1 reading_qualifier== assay_value=6.01

----------
target: Phosphatidylinositol 4,5-bisphosphate 3-kinase catalytic subunit beta isoform (Homo sapiens, UniProt P42338); assay: Inhibition of recombinant human PIK3CB using PIP2 as substrate incubated for 1 hr by ADP-glo assay
Sequence (P42338 whole entry, canonical isoform): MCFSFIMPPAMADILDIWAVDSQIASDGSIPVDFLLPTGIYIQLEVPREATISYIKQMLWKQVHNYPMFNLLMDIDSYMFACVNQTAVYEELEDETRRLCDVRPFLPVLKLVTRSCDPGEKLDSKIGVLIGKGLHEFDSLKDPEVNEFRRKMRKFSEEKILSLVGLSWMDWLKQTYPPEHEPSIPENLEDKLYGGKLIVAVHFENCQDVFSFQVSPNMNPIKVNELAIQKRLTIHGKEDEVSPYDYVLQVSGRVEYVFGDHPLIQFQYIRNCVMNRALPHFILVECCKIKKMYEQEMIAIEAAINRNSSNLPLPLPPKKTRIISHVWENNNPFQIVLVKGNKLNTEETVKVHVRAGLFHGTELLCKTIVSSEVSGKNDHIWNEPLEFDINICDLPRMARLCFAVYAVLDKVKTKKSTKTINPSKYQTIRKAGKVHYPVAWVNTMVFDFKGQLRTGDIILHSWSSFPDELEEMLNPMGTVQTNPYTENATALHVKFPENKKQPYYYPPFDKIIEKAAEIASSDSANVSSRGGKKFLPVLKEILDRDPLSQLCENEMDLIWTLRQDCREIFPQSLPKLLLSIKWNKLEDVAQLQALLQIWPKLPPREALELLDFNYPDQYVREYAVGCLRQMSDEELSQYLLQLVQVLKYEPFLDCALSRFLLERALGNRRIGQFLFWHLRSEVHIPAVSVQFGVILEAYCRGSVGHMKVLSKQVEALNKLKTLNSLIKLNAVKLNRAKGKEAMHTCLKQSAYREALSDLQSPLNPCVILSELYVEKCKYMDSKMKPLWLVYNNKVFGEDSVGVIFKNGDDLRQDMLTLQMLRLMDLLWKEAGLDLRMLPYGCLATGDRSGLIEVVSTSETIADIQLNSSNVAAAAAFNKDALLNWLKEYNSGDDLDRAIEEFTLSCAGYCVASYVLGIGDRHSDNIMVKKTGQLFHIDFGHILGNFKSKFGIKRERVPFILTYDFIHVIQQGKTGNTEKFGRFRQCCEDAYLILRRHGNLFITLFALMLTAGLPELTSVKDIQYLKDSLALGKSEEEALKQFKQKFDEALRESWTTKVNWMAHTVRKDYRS
pIC50: −log10 of the molar value.
MEASURE: pIC50

compound_structure_string=COc1ncc(-c2cc(OCCCCCCC(=O)NO)c3ncnc(C)c3c2)cc1F assay_value=7.00
compound_structure_string=COc1ccc(-c2cc(OCCN(C)c3ncc(C(=O)NO)cn3)c3ncnc(C)c3c2)cn1 assay_value=6.55

----------
biological target: Serine/threonine-protein kinase mTOR (Homo sapiens); test: Inhibition of recombinant human N-terminal FLAG-tagged mTOR (1362 to end amino acids) using ULight-4E-BP1 as substrate incubated for 1 hr by LANCE Ultra assay
Attribute: IC50
MEASURE: IC50

compound_structure_string=COc1ccc(-c2cc(OCCN(C)c3ncc(C(=O)NO)cn3)c3ncnc(C)c3c2)cn1 assay_value="6.26 µM"
compound_structure_string=COc1ncc(-c2cc(OCCCCCCC(=O)NO)c3ncnc(C)c3c2)cc1F assay_value="2.86 µM"

----------
experiment: AUC (0 to infinity) in ICR mouse at 3 mg/kg, iv measured after 0.033 to 24 hrs by LC/MS/MS analysis; format: ADME, organism-based; parameters: dose 3 mg/kg, time infinity, route intravenous; conditions: ICR, in vivo
MEASURE: AUC(0-inf) (ng·h/mL)

compound_structure_string=COc1ncc(-c2cc(OCCCCCCC(=O)NO)c3ncnc(C)c3c2)cc1F assay_value=558

----------
assay: AUC (0 to infinity) in ICR mouse at 30 mg/kg, po measured after 0.083 to 24 hrs by LC/MS/MS analysis; assay type: ADME, organism-based; parameters: dose 30 mg/kg, time infinity, route oral; conditions: ICR, in vivo
MEASURE: AUC(0-inf) (ng·h/mL)

compound_structure_string=COc1ncc(-c2cc(OCCCCCCC(=O)NO)c3ncnc(C)c3c2)cc1F assay_value=274

----------
Attribute: IC50
target: Histone deacetylase 1 (Homo sapiens); test: Inhibition of recombinant C-terminal His/FLAG-tagged HDAC1 (unknown origin) expressed in baculovirus infected Sf9 insect cells using Ac-peptide as substrate preincubated for 15 mins followed by substrate addition and measured after 1 hr
Sequence (Q13547 whole entry): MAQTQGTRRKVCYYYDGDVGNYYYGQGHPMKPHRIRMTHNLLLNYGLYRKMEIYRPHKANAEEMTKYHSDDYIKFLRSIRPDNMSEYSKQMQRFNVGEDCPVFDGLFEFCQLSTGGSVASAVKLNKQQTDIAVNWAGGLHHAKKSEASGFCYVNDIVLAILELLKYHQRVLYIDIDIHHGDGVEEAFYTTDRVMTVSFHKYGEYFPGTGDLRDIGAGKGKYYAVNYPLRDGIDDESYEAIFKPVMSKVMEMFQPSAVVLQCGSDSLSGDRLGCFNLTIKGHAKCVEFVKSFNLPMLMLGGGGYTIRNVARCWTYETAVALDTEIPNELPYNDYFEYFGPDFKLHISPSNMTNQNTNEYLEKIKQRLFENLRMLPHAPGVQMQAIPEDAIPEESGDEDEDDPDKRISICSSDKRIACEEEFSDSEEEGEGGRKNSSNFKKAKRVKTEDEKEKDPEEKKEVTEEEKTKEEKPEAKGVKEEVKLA
MEASURE: IC50 (nM)

compound_structure_string=COc1ncc(-c2cc(OCCCCCCC(=O)NO)c3ncnc(C)c3c2)cc1NS(=O)(=O)c1ccc(F)cc1F measure_unit=nM assay_value=6.3
compound_structure_string=COc1ncc(-c2cc(OCCCN(C)c3ncc(C(=O)NO)cn3)c3ncnc(C)c3c2)cc1NS(=O)(=O)c1ccc(F)cc1F measure_unit=nM assay_value=11
compound_structure_string=COc1ncc(-c2cc(OCCCCNc3ncc(C(=O)NO)cn3)c3ncnc(C)c3c2)cc1F measure_unit=nM assay_value=11
compound_structure_string=COc1ncc(-c2cc(OCCCCCCCCC(=O)NO)c3ncnc(C)c3c2)cc1NS(=O)(=O)c1ccc(F)cc1F measure_unit=nM assay_value=8.9
